# Protocol text: Oral bioavailability in Wistar Han rat
# Type: ADME, organism-based
# Recorded conditions: in vivo
Measure: bioavailability (%)
Numbers only, in %.

Recorded result, COCc1cnc(N2CCC([C@H]3C[C@H]3COCc3ccc(S(C)(=O)=O)cc3F)CC2)nc1 , bioavailability: 27

====

# Protocol text: Kinetic solubility in FaSSIF at pH 6.5
# Type: physicochemical
# Recorded conditions: FaSSIF, read-out: Kinetic_solubility
Measure: log10(solubility kinetic) (log10 of the value in µM)
In our notation, the value equals log10 of solubility kinetic in µM.

                                   compound                    measure  experimental_value
0  COCc1cnc(N2CCC([C@H]3C[C@H]3COCc3ccc(-n4cnnn4)c(F)c3)CC2)nc1  log10(solubility kinetic)                2.12
1  COCc1cnc(N2CCC([C@H]3C[C@H]3COCc3cc(F)c(S(C)(=O)=O)c(F)c3)CC2)nc1  log10(solubility kinetic)                2.06
2  COCc1cnc(N2CCC([C@H]3C[C@H]3COCc3ccc(S(C)(=O)=O)cc3F)CC2)nc1  log10(solubility kinetic)                2.21
3  CCc1cnc(N2CCC([C@H]3C[C@H]3COCc3ccc(S(C)(=O)=O)cn3)CC2)nc1  log10(solubility kinetic)                0.85
4  CCOc1cnc(N2CCC([C@H]3C[C@H]3COCc3ccc(S(C)(=O)=O)c(F)c3)CC2)nc1  log10(solubility kinetic)                2.00
5  CCS(=O)(=O)c1ccc(COC[C@@H]2C[C@@H]2C2CCN(c3nc(C(C)C)no3)CC2)c(F)c1  log10(solubility kinetic)                2.10

Respectfully, I request log10(solubility kinetic) for each entry included below.
1. CC1(OC(=O)N2CCC([C@H]3C[C@H]3COCc3ccc(-n4cnnn4)cc3F)CC2)CC1
2. COCc1cnc(N2CCC([C@H]3C[C@H]3COCc3ccc(S(C)(=O)=O)c(F)c3)CC2)nc1
3. CCc1cnc(N2CCC([C@H]3C[C@H]3COCc3ccc(S(C)(=O)=O)c(F)c3)CC2)nc1
4. CC(C)c1noc(N2CCC([C@H]3C[C@H]3COCc3ccc(-n4cnnn4)cc3F)CC2)n1

Response:
[2.10, 2.19, 2.15, 2.01]

Respectfully, I request log10(solubility kinetic) for each entry included below.
1. CS(=O)(=O)c1ccc(COC[C@@H]2C[C@@H]2C2CCN(c3ncc(F)cn3)CC2)cc1F
2. CCS(=O)(=O)c1ccc(OCC[C@@H]2C[C@@H]2C2CCN(c3nc(C(C)C)no3)CC2)c(F)c1

Response:
1.96
1.79

Respectfully, I request log10(solubility kinetic) for each entry included below.
1. COC(C)c1cnc(N2CCC([C@H]3C[C@H]3COCc3ccc(S(C)(=O)=O)cc3F)CC2)nc1 (stereo in doubt; 30)
2. CC(C)c1noc(N2CCC([C@H]3C[C@H]3COCc3ccc(S(C)(=O)=O)cc3F)CC2)n1
3. COc1cnc(N2CCC([C@H]3C[C@H]3COCc3ccc(S(C)(=O)=O)cc3F)CC2)nc1
4. O=S(=O)(CCO)c1ccc(COC[C@@H]2C[C@@H]2C2CCN(c3ncc(Cl)cn3)CC2)c(F)c1
5. COCc1cnc(N2CCC([C@H]3C[C@H]3COCc3ccc(CC(=O)N4CCOCC4)cc3F)CC2)nc1

Response:
1. 2.14
2. 2.16
3. 2.18
4. 1.92
5. 2.24

Recorded result, CCS(=O)(=O)c1ccc(COC[C@@H]2C[C@@H]2C2CCN(c3ncc(COC)cn3)CC2)c(F)c1 , log10(solubility kinetic): 2.11
